# experimental.system: T1, Pin3, Q06449
# T1 sequence (Q06449 53-122, looked up): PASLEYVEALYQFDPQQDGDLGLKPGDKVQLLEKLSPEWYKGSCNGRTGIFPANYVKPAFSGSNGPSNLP
# assay.overview: SPOT array
# condition: median of control spots 2171
Threshold 8. SPOT intensity below it: 1. SPOT intensity at it or above: -1.

Completed entries (count: 5):
INSERT INTO results (binder, discrete_label) VALUES
  ('QLLNPNRRAPRRPLS', -1),
  ('NPNRRAPRRPLSTQH', 1),
  ('VRVKKRPLIRPLNSS', 1),
  ('ANNQGPPNLPARDKS', 1),
  ('SRSKPLPLTPNSKYN', -1);

Next item in the queue.
Data request: Below 8 on SPOT intensity? Entry SKIRPTPRKPSRMAT
Data returned: -1
